- Tested on: SF-268 CNS
Your response should consist of one outcome taken from active, inactive

Sample answers from the record:
> print(dat)
                                   molecule         tgt  discrete.label
1  COCCOC(=O)NC(=O)Nc1ccc(/C(=N/O)c2ccc(Cl)cc2)cc1  SF-268 CNS          active
2  COc1ccc(-c2cc(/C=C3\C(=O)Nc4ccc(Cl)cc43)[nH]n2)cc1  SF-268 CNS        inactive
3         Cc1sc(C)c(Cc2c(C)sc(C)c2CCl)c1CCl  SF-268 CNS        inactive
4  CC(C)c1ccc(C(=O)Nc2sc3c(c2C#N)CCC(=O)C3)cc1  SF-268 CNS        inactive
5  CCN1C(=S)N(CC)C2C1NC(=S)N2/N=C/C=C/c1ccccc1 (configuration not stated)  SF-268 CNS        inactive
6  Cn1c(=O)c(Oc2ccccc2F)cc2cnc(NC3CCOCC3)nc21  SF-268 CNS        inactive

Q: Please let me know the test result on file for NC(=O)c1cc(Br)cc(C2CCCCC2)c1O .
Ans: inactive

Q: Would you kindly repeat that for O=S(=O)(NCC1CCC(CNc2ccc(Cl)cc2)CC1)c1ccc(-c2ccccc2)cc1 (configuration not stated) ?
Ans: inactive

Q: Would you kindly repeat that for Clc1ccc2[nH]cc(-c3nc(-c4c[nH]c5ncccc45)cs3)c2c1 ?
Ans: inactive

Q: Would you kindly repeat that for O=[N+]([O-])c1ccc(N/N=C/c2c(O)ccc3ccccc23)nc1 ?
Ans: inactive

Q: Would you kindly repeat that for Cc1nc2sc(C(=O)Nc3cccc4ccccc34)c(N)c2cc1C(=O)c1ccccc1 ?
Ans: inactive

Q: Would you kindly repeat that for COC1CC2C=C(C)/C=C/C=C/C(=O)NC(c3ccccc3)C/C=C/CCC(O)CC(=O)C2=C1O (configuration not stated) ?
Ans: active
